- target_or_system: Tyrosyl-tRNA synthetase, putative (Trypanosoma cruzi (strain CL Brener)) (UniProt Q4DSP6)
- Sequence (Q4DSP6 as listed by the source): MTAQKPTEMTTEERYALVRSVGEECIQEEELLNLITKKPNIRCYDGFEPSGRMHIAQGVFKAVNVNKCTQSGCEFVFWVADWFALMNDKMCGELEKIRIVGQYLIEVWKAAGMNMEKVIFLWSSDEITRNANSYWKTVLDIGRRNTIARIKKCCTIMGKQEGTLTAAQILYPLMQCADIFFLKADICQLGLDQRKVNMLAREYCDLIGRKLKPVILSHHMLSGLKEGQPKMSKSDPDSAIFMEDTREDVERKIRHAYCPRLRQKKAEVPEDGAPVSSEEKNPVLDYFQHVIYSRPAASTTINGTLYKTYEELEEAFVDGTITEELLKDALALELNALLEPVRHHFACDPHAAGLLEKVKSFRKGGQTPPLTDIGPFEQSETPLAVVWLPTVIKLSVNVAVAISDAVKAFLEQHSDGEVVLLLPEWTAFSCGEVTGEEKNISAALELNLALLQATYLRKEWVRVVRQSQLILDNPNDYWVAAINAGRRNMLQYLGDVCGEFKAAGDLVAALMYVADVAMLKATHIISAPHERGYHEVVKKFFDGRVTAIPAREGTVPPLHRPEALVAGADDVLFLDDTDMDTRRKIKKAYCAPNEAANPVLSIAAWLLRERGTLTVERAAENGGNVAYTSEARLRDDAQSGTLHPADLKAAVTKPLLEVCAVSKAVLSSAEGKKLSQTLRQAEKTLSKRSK
- experiment_notes: Trypanosoma cruzi tyrosyl tRNA synthetase (TcYRS) _High Tyrosine SOP
- Format: functional
- Design: scale not given: in the data most compounds retested in dose-response had high values
- conditions_used: 30 µM
quantity_measured: Percent Effect (%)
# unit: % | format: bare number

Example entries begin here.
Problem: Param item = Cc1cc(CN(C)C(=O)NC(C)c2nncn2C)no1 (centres undefined) ; retrieve measured Percent Effect.
Result: 3.16

Problem: // Percent Effect lookup, key: CN(CC1COc2ccccc2O1)C(=O)NCCCn1ccnc1 (centres undefined)
Result: -3.43

Problem: Form field: reported Percent Effect of Cc1nn(C)c(Cl)c1C1CCCN1C(=O)c1ccc2nncn2c1 (centres undefined)
Result: -4.43

---
Problem: # lookup: Percent Effect of Cc1csc(N2CCCN(C(=O)C(C)n3ccnc3)CC2)n1 (centres undefined)
Result: 5.94

Problem: Can you share its Percent Effect? I mean this compound: COc1ccc(CN2CCc3ncnc(OC(C)C)c3CC2)cc1
Result: -14.6

Problem: Recorded Percent Effect for CC(O)CN1CCN(C(=O)c2ccc(Cn3cccn3)cc2)CC1 (centres undefined) , please?
Result: 7.39

Problem: Given the compound Cc1ccc(Cl)cc1C(=O)N1CCC2(CC1)c1ccccc1[C@@H](N)[C@@H]2O , what is its reported Percent Effect?
Result: 6.88

Problem: // query Percent Effect value for entry COCCn1cc2c(n1)C(CNCc1ccc(F)cc1)OCC2 (centres undefined)
Result: 11.9

Problem: For c1cc2c(cc1C1CCCN1Cc1nnnn1C1CC1)OCCO2 (centres undefined) , what is its reported Percent Effect?
Result: 5.26

Problem: Requested field: Percent Effect. Item: CCc1nccn1C1CCCN(C(=O)c2ccc3c(c2)OCO3)C1 (centres undefined)
Result: -1.94

Problem: Need Percent Effect, item CCc1nc(NCC(=O)N2CCOCC2)c2c(n1)c(C)nn2CC
Result: 2.12

Problem: Entry Cc1nc(C)n(C2CCCN(C(=O)c3csc(C(C)C)n3)C2)n1 (centres undefined) : reported Percent Effect = ?
Result: 8.37

Problem: # query: Percent Effect of entry Cc1nc(CNC(=O)Cn2nc(-c3ccc(F)cc3)oc2=O)cs1
Result: 7.35

Problem: # lookup: Percent Effect of CN(CCc1cccs1)C1CCCN(Cc2noc(C3CC3)n2)C1 (centres undefined)
Result: 3.16
